src = patent US5518735A

- protocol: Plasma concentration in rats after intravenous administration (HPLC)
- settings: rat, plasma, iv, 1 mg/kg
Where a name gives a salt, the structure may show the parent alone.

molecule: N=C(NO)c1cccc(CC(NS(=O)(=O)c2ccc3ccccc3c2)C(=O)N2Cc3ccccc3CC2C(=O)O)c1 (racemic) [Compound 190, hydroiodide]
concentration at 10 min (ng/mL): 806
//
molecule: N=C(N)c1cccc(C[C@H](NS(=O)(=O)c2ccc3ccccc3c2)C(=O)N2CCC[C@@H]2C(=O)O)c1 [Compound 123, hydrochloride]
concentration at 10 min (ng/mL): 660
//
molecule: NCc1cccc(CC(NS(=O)(=O)c2ccc3ccccc3c2)C(=O)N2CCC(C(=O)O)CC2)c1 (racemic)
concentration at 10 min (ng/mL): 653
//
molecule: N=C(N)c1cccc(CC(NS(=O)(=O)c2ccc3ccccc3c2)C(=O)N2CCCCC2C(=O)O)c1 (racemic)
concentration at 10 min (ng/mL): 496
//
molecule: N=C(N)c1cccc(CC(NS(=O)(=O)c2ccc3ccccc3c2)C(=O)N2Cc3ccccc3CC2C(=O)O)c1 (racemic)
concentration at 10 min (ng/mL): 775
//
molecule: N=C(N)c1cccc(CC(NS(=O)(=O)c2ccc3ccccc3c2)C(=O)N2CCC(C(=O)O)CC2)c1 (racemic)
concentration at 10 min (ng/mL): 526

---

- protocol: Plasma concentration in rats after intravenous administration (HPLC)
- settings: rat, plasma, iv, 1 mg/kg
Structures can show the parent of a compound that is named as a salt.
# maps each entry to its concentration at 1.5 h
property: concentration at 1.5 h (ng/mL)

molecule: NCc1cccc(CC(NS(=O)(=O)c2ccc3ccccc3c2)C(=O)N2CCC(C(=O)O)CC2)c1 (racemic) [Compound 186]
property: concentration at 1.5 h
output_unit: ng/mL
reported_result: 53
--
molecule: N=C(N)c1cccc(CC(NS(=O)(=O)c2ccc3ccccc3c2)C(=O)N2CCC(C(=O)O)CC2)c1 (racemic) [Compound 85]
property: concentration at 1.5 h
output_unit: ng/mL
reported_result: 52
--
molecule: N=C(N)c1cccc(CC(NS(=O)(=O)c2ccc3ccccc3c2)C(=O)N2CCCCC2C(=O)O)c1 (racemic) [Compound 83]
property: concentration at 1.5 h
output_unit: ng/mL
reported_result: 45
--
molecule: N=C(N)c1cccc(C[C@H](NS(=O)(=O)c2ccc3ccccc3c2)C(=O)N2CCC[C@@H]2C(=O)O)c1 [Compound 123, hydrochloride]
property: concentration at 1.5 h
output_unit: ng/mL
reported_result: 68

---

- protocol: Plasma concentration in rats after intravenous administration (HPLC)
- settings: rat, plasma, iv, 1 mg/kg
Structures can show the parent of a compound that is named as a salt.
# concentration at 2 h annotations
property: concentration at 2 h (ng/mL)

compound: NCc1cccc(CC(NS(=O)(=O)c2ccc3ccccc3c2)C(=O)N2CCC(C(=O)O)CC2)c1 (racemic) [Compound 186]
output_unit: ng/mL
reported_result: 228
//
compound: N=C(N)c1cccc(CC(NS(=O)(=O)c2ccc3ccccc3c2)C(=O)N2CCC(C(=O)O)CC2)c1 (racemic) [Compound 85]
output_unit: ng/mL
reported_result: 28
//
compound: N=C(N)c1cccc(C[C@H](NS(=O)(=O)c2ccc3ccccc3c2)C(=O)N2CCC[C@@H]2C(=O)O)c1 [Compound 123, hydrochloride]
output_unit: ng/mL
reported_result: 32

---

- protocol: Plasma concentration in rats after intravenous administration (HPLC)
- settings: rat, plasma, iv, 1 mg/kg
Where a name gives a salt, the structure may show the parent alone.

compound: N=C(N)c1cccc(C[C@H](NS(=O)(=O)c2ccc3ccccc3c2)C(=O)N2CCC[C@@H]2C(=O)O)c1 [Compound 123, hydrochloride]
concentration at 3 h / ng/mL: 22

---

- target_entity: UniProtKB P00743
- Sequence (P00743 234-492 limits assumed): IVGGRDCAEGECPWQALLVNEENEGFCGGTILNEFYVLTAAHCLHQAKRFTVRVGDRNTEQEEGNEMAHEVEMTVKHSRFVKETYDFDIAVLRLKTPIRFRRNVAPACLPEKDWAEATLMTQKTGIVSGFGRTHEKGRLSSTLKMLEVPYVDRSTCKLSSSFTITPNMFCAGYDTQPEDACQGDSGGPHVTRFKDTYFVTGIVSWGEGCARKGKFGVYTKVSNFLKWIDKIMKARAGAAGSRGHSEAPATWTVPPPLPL
- Sequence (P00743 41-180 partner limits assumed): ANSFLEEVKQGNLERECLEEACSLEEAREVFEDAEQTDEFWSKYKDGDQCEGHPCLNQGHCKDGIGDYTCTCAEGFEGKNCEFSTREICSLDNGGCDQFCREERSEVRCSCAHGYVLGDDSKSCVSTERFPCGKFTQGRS
- protocol: Inhibition of factor Xa (dissociation constant Ki)
- Format: biochemical
pKi: −log10 of the molar value.
property: pKi

compound: CN1CCN(C(=O)C(Cc2cccc(C(=N)N)c2)NS(=O)(=O)c2ccc3ccccc3c2)CC1 (racemic) [Compound 35]
property: pKi
reported_result: 4.52

---

- target_entity: UniProt:P00743
- protocol: Inhibition of factor Xa (dissociation constant Ki)
- Type: biochemical
- settings: Tables 19-25; read-out: Ki, Factor Xa
Criterion: Ki strictly less than 300 µM. Met: Fulfilled. Not met: Not fulfilled.

molecule: CC1CCN(C(=O)C(Cc2cccc(C(=N)NO)c2)NS(=O)(=O)c2ccc3ccccc3c2)CC1 (racemic) [Compound 187, hydroiodide]
classification: Not fulfilled

molecule: Nc1cccc(CC(NS(=O)(=O)c2ccc3ccccc3c2)C(=O)N2CCC(C(=O)O)CC2)c1 (racemic) [Compound 205]
classification: Not fulfilled

molecule: CC1CCCCN1C(=O)C(Cc1cccc(C(=N)N)c1)NS(=O)(=O)c1ccc2ccccc2c1 (racemic) [Compound 32]
classification: Fulfilled

molecule: N=C(N)c1cccc(CC(NS(=O)(=O)c2cccc3cccnc23)C(=O)N2CCC(C(=O)O)CC2)c1 (racemic) [Compound 181]
classification: Fulfilled

molecule: N=C(N)c1cccc(CC(NC(=O)CNS(=O)(=O)c2ccc3ccccc3c2)C(=O)N2CCC(C(=O)O)CC2)c1 (racemic) [Compound 166]
classification: Fulfilled

molecule: N=C(N)c1cccc(CC(NS(=O)(=O)c2cccc3cccnc23)C(=O)N2CCCCC2C(=O)O)c1 (racemic) [Compound 180]
classification: Not fulfilled

molecule: N=C(NO)c1cccc(CC(NS(=O)(=O)c2ccc3ccccc3c2)C(=O)N2Cc3ccccc3CC2C(=O)O)c1 (racemic) [Compound 190, hydroiodide]
classification: Fulfilled

---

- protocol: Plasma concentration in rats after subcutaneous administration (HPLC)
- settings: rat, plasma, sc, 5 mg/kg
Where a name gives a salt, the structure may show the parent alone.
Rule: measured concentration at 0.25 h below 300 ng/mL gets Yes; anything equal to or greater than 300 ng/mL gets No.

molecule: N=C(N)c1cccc(CC(NS(=O)(=O)c2ccc3ccccc3c2)C(=O)N2CCCCC2C(=O)O)c1 (racemic)
classification: No
--
molecule: N=C(NO)c1cccc(CC(NS(=O)(=O)c2ccc3ccccc3c2)C(=O)N2Cc3ccccc3CC2C(=O)O)c1 (racemic) [Compound 190, hydroiodide]
classification: No
--
molecule: NCc1cccc(CC(NS(=O)(=O)c2ccc3ccccc3c2)C(=O)N2CCC(C(=O)O)CC2)c1 (racemic)
classification: Yes
--
molecule: N=C(N)c1cccc(C[C@H](NS(=O)(=O)c2ccc3ccccc3c2)C(=O)N2CCC[C@@H]2C(=O)O)c1 [Compound 123, hydrochloride]
classification: No
--
molecule: N=C(N)c1cccc(CC(NS(=O)(=O)c2ccc3ccccc3c2)C(=O)N2CCC(C(=O)O)CC2)c1 (racemic)
classification: No

---

Each entry below lists one item and its recorded pKi value.
- target_entity: thrombin (Bos taurus)
pKi: −log10 of the molar value. Structures can show the parent of a compound that is named as a salt.

compound: N=C(N)c1cccc(CC(NS(=O)(=O)c2cccc3cccnc23)C(=O)N2CCCCC2C(=O)O)c1 (racemic) [Compound 180]
pKi: 4.80
--
compound: N=C(NO)c1cccc(CC(NS(=O)(=O)c2ccc3ccccc3c2)C(=O)N2CCC(C(=O)O)CC2)c1 (racemic) [Compound 189, hydroiodide]
pKi: 3.57
--
compound: CC1CCN(C(=O)C(Cc2cccc(C(=N)N)c2)NS(=O)(=O)c2cccc3cccnc23)CC1 (racemic) [Compound 171, hydroiodide]
pKi: 6.47
--
compound: N=C(N)Nc1cccc(CC(NS(=O)(=O)c2ccc3ccccc3c2)C(=O)N2CCCCC2)c1 (racemic) [Compound 207, hydrochloride]
pKi: 6.40
--
compound: COC(=O)C(Cc1cccc(C(=N)N)c1)NS(=O)(=O)c1ccc2ccccc2c1 (racemic) [Compound 7]
pKi: 6.55
--
compound: COC(=O)[C@H]1CCCN1C(=O)[C@H](Cc1cccc(C(=N)N)c1)NS(=O)(=O)c1ccc2ccccc2c1 [Compound 124, hydrochloride]
pKi: 6.57
--
compound: COC(=O)CNC(=O)C1CCCCN1C(=O)C(Cc1cccc(C(=N)N)c1)NS(=O)(=O)c1ccc2ccccc2c1 (racemic) [Compound 117, hydrochloride]
pKi: 6.06
--
compound: CC1CCN(C(=O)C(Cc2cccc(N)c2)NS(=O)(=O)c2ccc3ccccc3c2)CC1 (racemic) [Compound 203]
pKi: 5.05
--
compound: N=C(N)c1cccc(CC(NS(=O)(=O)c2ccc3ccccc3c2)C(=O)N2Cc3ccccc3CC2C(=O)O)c1 (racemic) [Compound 134]
pKi: 7.74
--
compound: CC1CCN(C(=O)C(Cc2cccc(C(=N)N)c2)NC(=O)CNS(=O)(=O)c2ccc3ccccc3c2)CC1 (racemic) [Compound 156]
pKi: 5.44
--
compound: N=C(N)c1cccc(CC(NS(=O)(=O)c2ccc3ccccc3c2)C(=O)N2CCCCC2C(=O)O)c1 (racemic) [Compound 83]
pKi: 6.59
--
compound: N=C(N)Nc1cccc(CC(NS(=O)(=O)c2ccc3ccccc3c2)C(=O)N2CCCCC2C(=O)O)c1 (racemic) [Compound 208, hydrochloride]
pKi: 4.54
--
compound: NCc1cccc(CC(NS(=O)(=O)c2ccc3ccccc3c2)C(=O)N2CCC(C(=O)O)CC2)c1 (racemic) [Compound 186]
pKi: 6.30
